test system: LC-2-ad; assay: relative viability (nuclei count vs DMSO), 5 days (fraction); higher = more cells survive; details: first compound 1.265 µM
quantity: relative viability
# answer = number (no unit)

Please review the entries below; each comes with its answer.
{"molecule": "Cc1sc2c(c1C)C(c1ccc(Cl)cc1)=N[C@@H](CC(=O)OC(C)(C)C)c1nnc(C)n1-2 [JQ1] + CCNC(=O)c1noc(-c2cc(C(C)C)c(O)cc2O)c1-c1ccc(CN2CCOCC2)cc1 [Luminespib] (partner 0.01 µM)", "target or test system": "LC-2-ad", "quantity": "relative viability", "reported": 0.395}
{"molecule": "Cc1sc2c(c1C)C(c1ccc(Cl)cc1)=N[C@@H](CC(=O)OC(C)(C)C)c1nnc(C)n1-2 [JQ1] + C[C@@H](Oc1cc(-c2cnn(C3CCNCC3)c2)cnc1N)c1c(Cl)ccc(F)c1Cl [Crizotinib] (partner 1 µM)", "target or test system": "LC-2-ad", "quantity": "relative viability", "reported": 0.277}
{"molecule": "Cc1sc2c(c1C)C(c1ccc(Cl)cc1)=N[C@@H](CC(=O)OC(C)(C)C)c1nnc(C)n1-2 [JQ1] + O=C(CCCCCCC(=O)Nc1ccccc1)NO [Vorinostat] (partner 1 µM)", "target or test system": "LC-2-ad", "quantity": "relative viability", "reported": 0.273}

-- ask Tell me reported relative viability for Cc1sc2c(c1C)C(c1ccc(Cl)cc1)=N[C@@H](CC(=O)OC(C)(C)C)c1nnc(C)n1-2 [JQ1] + Nc1nc2[nH]cc(CCc3ccc(C(=O)N[C@@H](CCC(=O)O)C(=O)O)cc3)c2c(=O)[nH]1 [Pemetrexed] (partner 0.2 µM) , tested with LC-2-ad.
-- reply 0.256

---

system: NCI-H2347; test: relative viability (nuclei count vs DMSO), 5 days (fraction); higher = more cells survive; conditions: first compound 0.8 µM
Lab note: compare relative viability with 0.8, writing Condition met if less and Condition not met if equal or more.

{"compound": "Cc1cnc(-c2cnc(NCCNc3ccc(C#N)cn3)nc2-c2ccc(Cl)cc2Cl)[nH]1 + CC(=O)Nc1cccc(-n2c(=O)n(C3CC3)c(=O)c3c(Nc4ccc(I)cc4F)n(C)c(=O)c(C)c32)c1 [Trametinib] (partner 0.02 µM)", "assigned category": "Condition met"}
{"compound": "O=c1[nH]c2ccccc2n1C1CCN(CCCC(c2ccc(F)cc2)c2ccc(F)cc2)CC1 [Pimozide] + O=C(c1cc(Cc2n[nH]c(=O)c3ccccc23)ccc1F)N1CCN(C(=O)C2CC2)CC1 [Olaparib] (partner 8 µM)", "assigned category": "Condition met"}
{"compound": "O=c1[nH]c2ccccc2n1C1CCN(CCCC(c2ccc(F)cc2)c2ccc(F)cc2)CC1 [Pimozide] + Cc1cc(Nc2cc(N3CCN(C)CC3)nc(Sc3ccc(NC(=O)C4CC4)cc3)n2)n[nH]1 [Tozasertib] (partner 0.1 µM)", "assigned category": "Condition met"}
{"compound": "Cc1cnc(-c2cnc(NCCNc3ccc(C#N)cn3)nc2-c2ccc(Cl)cc2Cl)[nH]1 + Cc1nc(NC(=O)N2CCC[C@H]2C(N)=O)sc1-c1ccnc(C(C)(C)C(F)(F)F)c1 [Alpelisib] (partner 2 µM)", "assigned category": "Condition not met"}
{"compound": "O=c1[nH]c2ccccc2n1C1CCN(CCCC(c2ccc(F)cc2)c2ccc(F)cc2)CC1 [Pimozide] + CC(=O)c1c(C)c2cnc(Nc3ccc(N4CCNCC4)cn3)nc2n(C2CCCC2)c1=O [Palbociclib] (partner 0.5 µM)", "assigned category": "Condition met"}

// switching to the query compound
-- ask Field: below-cutoff. Rule: recorded relative viability strictly less than 0.8. Subject: Cc1cnc(-c2cnc(NCCNc3ccc(C#N)cn3)nc2-c2ccc(Cl)cc2Cl)[nH]1 + CC1(C)CCC(c2ccc(Cl)cc2)=C(CN2CCN(c3ccc(C(=O)NS(=O)(=O)c4ccc(N[C@H](CCN5CCOCC5)CSc5ccccc5)c(S(=O)(=O)C(F)(F)F)c4)cc3)CC2)C1 [Navitoclax] (partner 0.5 µM)
-- reply Condition not met

This collection of values is drawn from the supplement of paper PMC10307832.
